Just for reference, patent US20240327334A1 is where these values come from.

Biological target: UniProtKB P0DTD1
Assay: SARS-CoV-2 Papain-like (PLpro) protease biochemical enzyme inhibition assay (ubiquitin-fluorophore substrate, Ub-R110)
Conditions: Ub-R110 substrate; run in duplicate; read-out: PLpro IC50
pIC50: −log10 of the molar value.
Consider the following compounds; for each one, report its pIC50.

GET /values?readout=pIC50&system=UniProtKB P0DTD1&item= COc1ccc(C#C[C@H](C)NC(=O)C(=O)NCc2ccccc2C(=O)NC2(c3ccc4nn(C)cc4c3)CC2)c(C#N)c1
> 7.00

For the record NC(=O)N1CC[C@H]1CNC(=O)C(=O)NCc1ccccc1C(=O)NC1(c2cccc3ccccc23)CC1 , what value of pIC50 is listed for UniProtKB P0DTD1?
5.00 to 6.00

UniProtKB P0DTD1 / pIC50 / N#CCNC(=O)C(=O)NCc1ccccc1C(=O)NC1(c2cc(F)cc(-c3cnn(C4CC4)c3)c2)CC1 : value?
> 7.00

Item: C[C@@H](NC(=O)c1ccccc1CNC(=O)C(=O)NC1(C#N)CC1)c1cccc2ccccc12 Test system: UniProtKB P0DTD1 Read-out: pIC50 Value: ?
< 5.00

Return pIC50 measured with UniProtKB P0DTD1 given this compound: Cc1cccc(C)c1NC(=O)/C=C/CNC(=O)C(=O)NCc1ccccc1C(=O)NC1(c2cccc3ccccc23)CC1
< 5.00

Query the reported pIC50 for UniProtKB P0DTD1; item: O=C(NCC#Cc1cc(F)ccn1)C(=O)NCc1ccccc1C(=O)NC1(c2ccc3ccccc3c2)CC1
> 7.00

Lab note: need pIC50 for N#Cc1cc(-c2cccs2)cc(C2(NC(=O)c3ccccc3CNC(=O)C(=O)NCC#Cc3nccs3)CC2)c1 on UniProtKB P0DTD1, anyone have it?
> 7.00

====

Molecular target: SARS-CoV-2 Papain-like (PLpro) protease (Severe acute respiratory syndrome coronavirus 2, UniProt P0DTD1)
Test: SARS-CoV-2 Papain-like (PLpro) protease biochemical enzyme inhibition assay (ubiquitin-fluorophore substrate, Ub-R110)
Conditions: Ub-R110 substrate; run in duplicate; read-out: PLpro IC50
pIC50: −log10 of the molar value.
Exercise: state measured pIC50 for each of the molecules provided.

Name the recorded pIC50 for CC(C)(C)OC(=O)N1CC[C@@H](CNC(=O)C(=O)NCc2ccccc2C(=O)NC2(c3cccc4ccccc34)CC2)C1 .
< 5.00

Quick one: pIC50 for N#CCNC(=O)C(=O)NCc1ccccc1C(=O)NC1(c2ccc(Br)cc2)CC1 ?
5.00 to 6.00

Query (molecule): N#CCNC(=O)C(=O)NCc1ccccc1C(=O)NC1(c2cc(-c3cn(-c4ccccn4)nn3)cc3ccccc23)CC1 ; field requested: pIC50
> 7.00

If you can, please state the reported pIC50 value of N#CCNC(=O)C(=O)NCc1c(Cl)cccc1C(=O)NC1(c2cc(-c3cnn(C4CC4)c3)cc3ccccc23)CC1 .
< 5.00

Can you look up the measured pIC50 of O=C(NCC#Cc1cscn1)C(=O)NCc1ccccc1C(=O)NC1(c2cccc3ccccc23)CC1 for me?
> 7.00

Which pIC50 value is on record for CC(C)[C@@H](C#Cc1nccs1)NC(=O)C(=O)NCc1ccccc1C(=O)NC1(c2ccc3nn(C)cc3c2)CC1 ?
6.00 to 7.00

Fill blank: measured pIC50 of the molecule O=C(NCC#Cc1nccs1)C(=O)NCc1ccccc1C(=O)NC1(c2ccc3nc(C4CC4)ccc3c2)CC1 is ____.
> 7.00

====

Biological target: SARS-CoV-2 Papain-like (PLpro) protease (Severe acute respiratory syndrome coronavirus 2, UniProt P0DTD1)
Assay: SARS-CoV-2 Papain-like (PLpro) protease biochemical enzyme inhibition assay (ubiquitin-fluorophore substrate, Ub-R110)
Settings: Ub-R110 substrate; run in duplicate; read-out: PLpro IC50
Could you please report measured IC50 for the items listed next?

// lookup IC50 for O=C(NCC#CC(=O)N1CC2CC2C1)C(=O)NCc1ccccc1C(=O)NC1(c2ccc3ccccc3c2)CC1 (stereo not shown)
< 100 nM

So what does the record say about IC50 for N#CCNC(=O)C(=O)NCc1ccccc1C(=O)NC1(c2cc(Oc3ccccc3)cc(C(F)(F)F)c2)CC1 ?
> 10000 nM

Bench note: what IC50 did O=C(NCC#CC(=O)N1CCCO1)C(=O)NCc1ccccc1C(=O)NC1(c2cccc3ccccc23)CC1 show?
< 100 nM

Looking for the measured IC50 of O=C(NCC#Cc1nccs1)C(=O)NCc1ccccc1C(=O)NC1(c2cc(Cl)cc(-c3ncco3)c2)CC1 , can you help?
< 100 nM

What measured IC50 goes with N#CCNC(=O)C(=O)NCc1ccccc1C(=O)NC1(c2cc(-c3cncs3)cc3ccccc23)CC1 ?
< 100 nM

Param item = C=C(C)c1ccc(-c2cc(C3(NC(=O)c4ccccc4CNC(=O)[C@H]4CCN(C#N)C4)CC3)c3ccccc3c2)s1 ; retrieve measured IC50.
< 100 nM

Can you look up the measured IC50 of N#CCNC(=O)C(=O)NCCc1ccccc1C(=O)NC1(c2ccc3ccccc3c2)CC1 for me?
> 10000 nM

====

Test system: SARS-CoV-2 replicon
Experiment: microbe, parasite or virus in culture
Assay type: cell-based
Conditions: Severe acute respiratory syndrome coronavirus 2, Huh-7
pEC50: −log10 of the molar value.
measured metric: pEC50

Given the compound Cn1cc2cc(C3(NC(=O)c4ccccc4CNC(=O)C(=O)NCC#Cc4ccc(S(C)(=O)=O)cc4F)CC3)ccc2n1 , what is its reported pEC50?
> 6.00

Which pEC50 value is on record for N#Cc1ccccc1C#CCNC(=O)C(=O)NCc1ccccc1C(=O)NC1(c2ccc3ccccc3c2)CC1 ?
> 6.00

// returns reported pEC50 for input N#CCNC(=O)C(=O)NCc1ccccc1C(=O)NC1(c2cccc(C(F)(F)F)c2Cl)CC1
5.00 to 6.00

Request the reported pEC50 associated with CON(C)C(=O)/C=C/CNC(=O)C(=O)NCc1ccccc1C(=O)NC1(c2cccc3ccccc23)CC1
5.00 to 6.00

Name the reported pEC50 value associated with the compound CC1(O)CN(c2cc(C3(NC(=O)c4ccccc4CNC(=O)C(=O)NCC#N)CC3)c3ccccc3c2)C1
5.00 to 6.00

Entry Cn1ccnc1C#CCNC(=O)C(=O)NCc1ccccc1C(=O)NC1(c2ccc3ccccc3c2)CC1 : reported pEC50 = ?
> 6.00

Requested field: pEC50. Item: O=C(NCC#Cc1nccs1)C(=O)NCc1ccccc1C(=O)NC1(c2cc(Cl)cc(-c3cnc(C4CC4)nc3)c2)CC1
> 6.00

====

Target: SARS-CoV-2 Papain-like (PLpro) protease (Severe acute respiratory syndrome coronavirus 2)
Assay: SARS-CoV-2 Papain-like (PLpro) protease biochemical enzyme inhibition assay (ubiquitin-fluorophore substrate, Ub-R110)
Details: Ub-R110 substrate; run in duplicate; read-out: PLpro IC50
Please respond with reported IC50 for every item in the list.

Need IC50, item CN1C[C@H](F)CC1COc1ccc(CNC(=O)C(=O)NCC#N)c(C(=O)NC2(c3cc(-c4cnn(C5CC5)c4)cc4ccccc34)CC2)c1 (stereo partly shown)
< 100 nM

For the compound O=C(NCC#Cc1nccs1)C(=O)NCc1ccccc1C(=O)NC1(c2cc(F)cc(C(=O)Nc3ccc(F)cc3F)c2)CC1 , what IC50 is on record?
< 100 nM

// IC50 lookup, key: CC(C)[C@@H](C#Cc1ncccc1C(F)(F)F)NC(=O)C(=O)NCc1ccccc1C(=O)NC1(c2ccc3nn(C)cc3c2)CC1
> 10000 nM

// query IC50 value for entry COc1cccnc1C#CCNC(=O)C(=O)NCc1ccccc1C(=O)NC1(c2ccc3nn(C)cc3c2)CC1
< 100 nM

Return reported IC50; argument: C[C@@H](C#Cc1ccccc1C#N)NC(=O)C(=O)NCc1ccccc1C(=O)NC1(c2ccc3nn(C)cc3c2)CC1
< 100 nM

Which measured IC50 value corresponds to C#CCNC(=O)C(=O)NCc1ccccc1C(=O)NC1(c2cc(-c3cnn(C4CC4)c3)cc(Cl)c2F)CC1 ?
< 100 nM

Which value of IC50 has been reported for N#CCNC(=O)C(=O)NCc1ccccc1C(=O)NC1(c2cc(C(F)(F)F)ccc2F)CC1 in the records?
1000 to 10000 nM

====

Molecular target: SARS-CoV-2 Papain-like (PLpro) protease (Severe acute respiratory syndrome coronavirus 2, UniProt P0DTD1)
Assay: SARS-CoV-2 Papain-like (PLpro) protease biochemical enzyme inhibition assay (ubiquitin-fluorophore substrate, Ub-R110)
Settings: Ub-R110 substrate; run in duplicate; read-out: PLpro IC50
measured metric: IC50

Which IC50 reading was recorded for the compound COc1cc(C2(NC(=O)c3ccccc3CNC(=O)C(=O)NC[C@@H]3CCN3C#N)CC2)cc2cn(C3CC3)nc12 ?
< 100 nM

State the recorded IC50 for this entry: N#Cc1ccc(C#CCNC(=O)C(=O)NCc2ccccc2C(=O)NC2(c3ccc4ccccc4c3)CC2)s1
1000 to 10000 nM

Would you mind telling me what IC50 value was observed for Cc1cc(C#N)ccc1C#CCNC(=O)C(=O)NCc1ccccc1C(=O)NC1(c2ccc3ccccc3c2)CC1 ?
< 100 nM

Consider the compound shown here: N#Cc1ncc(C#CCNC(=O)C(=O)NCc2ccccc2C(=O)NC2(c3ccc4ccccc4c3)CC2)cn1 What is its recorded IC50?
> 10000 nM

Bench note: what IC50 did CN1C(=O)c2cccc3c(C4(NC(=O)c5ccccc5CNC(=O)C(=O)NCC#N)CC4)ccc1c23 show?
< 100 nM

Look up IC50 for this compound: CC(C)(O)c1ncc(-c2cc(C3(NC(=O)c4ccccc4CNC(=O)C(=O)NCC#N)CC3)c3ccccc3c2)s1
< 100 nM

For the compound COc1cccc(C#CCNC(=O)C(=O)NCc2ccccc2C(=O)NC2(c3ccc4ccccc4c3)CC2)n1 , what IC50 is on record?
< 100 nM
